pIC50 listing for selected compounds.
# target: α-synuclein (αSyn) (Homo sapiens, UniProt P37840)
# protocolDetails: split Gaussia luciferase oligomerization assay; also FRET oligomerization, ThT fibrillization, HT-CM-SPR hit (tethered)
# Assay type: biochemical
# Design: gene SNCA; αSyn-GLuc1 and αSyn-GLuc2 (split Gaussia luciferase fragment fused to the C-terminus of αSyn); monomeric αSyn in SPR and fibrillization
pIC50: −log10 of the molar value.
measuredQuantity: pIC50

1. CNC(=O)c1cc(O)ccc1N ... 4.98
2. CNC(=O)CN(C(=O)Cc1noc2ccccc12)C(C)c1ccc(Cl)cc1 (centres unmarked) ... 3.54
